Values compiled from the METLIN SMRT retention time set (Domingo-Almenara et al. 2019).

- protocol.summary: gradient 5% acetonitrile 3 min, to 50% in 2 min, to 85% in 15 min, held 3 min, 100 µL/min
- condition.notes: column: Zorbax Extend-C18 2.1 x 50 mm; eluents: water / acetonitrile, 0.1% formic acid
Documented RP-LC retention time across a set of compounds
For clarity, give the value followed by its unit.

These solved cases illustrate the format of a correct answer.
compound | measured.value
CC(C)CNC(=O)C1CCN(C(=O)Nc2ccc(NC(=O)NC3CCCC3)cc2)CC1 | 728 s
Cc1noc(-c2ccc(NC(=O)CSc3nnnn3C)cc2)n1 | 665 s
COCc1cc(=O)n(CC(=O)Nc2cccc(SC)c2)c(N2CCOCC2)n1 | 857 s
Cc1nc(-c2csc(S(=O)(=O)N3CCCC(C(=O)Nc4cccc5c4CCCC5)C3)c2)no1 (centres undefined) | 1110 s
COc1ccccc1NC(=O)N1CCc2[nH]cnc2C1c1ccncc1 (centres undefined) | 540 s

Challenge: Name the recorded RP-LC retention time for Cn1cc(-c2ccccc2)cc1C(=O)NCCCN1CCOCC1 .
Response given: 636 s

Challenge: Would you kindly share the measured RP-LC retention time for O=C(NCc1ccco1)c1nc2ccccn2c1-c1ccsc1 ?
Response given: 761 s

* * *

- protocol.summary: gradient 5% acetonitrile 3 min, to 50% in 2 min, to 85% in 15 min, held 3 min, 100 µL/min
- condition.notes: column: Zorbax Extend-C18 2.1 x 50 mm; eluents: water / acetonitrile, 0.1% formic acid
Classify by measured RP-LC retention time: Condition met if it is equal to or exceeds 700 s, Condition not met if it is smaller.

A selection of reference data follows.
compound | answer.label
CCOc1ccc(C(=O)NC2CCN(c3cc(-c4cccs4)[nH]n3)C2)cc1 (centres undefined) | Condition not met
CCOc1ccc(-c2ccc(=O)n(Cc3nc(-c4cccc(OCC)c4)no3)n2)cc1 | Condition met
CCOc1ccc(NC(=O)Cn2c(N)nc(C)cc2=O)cc1 | Condition not met
CCN(CC)S(=O)(=O)c1ccc2nc(Cl)cnc2c1 | Condition met
CCCn1c(CN2CCCC2)nc2cc(NC(=O)C(C)C)ccc21 | Condition not met
COCCNC(=O)CN1CCN(c2cc(C(=O)O)c3cc(NC(=O)c4ccccc4)ccc3n2)CC1 | Condition not met
COc1ccc(-c2noc(Cn3ccn(-c4c(C)cccc4C)c(=O)c3=O)n2)cc1 | Condition met

Consider the additional compound presented here.
Challenge: API: above_or_equal(metric=RP-LC retention time, cutoff=700 s) for item CCc1ccc(CNC(=O)C2CCCN(c3nc4c(s3)c(C)nn4-c3ccc(Cl)cc3)C2)cc1 (centres undefined)
Response given: Condition met

* * *

- protocol.summary: gradient 5% acetonitrile 3 min, to 50% in 2 min, to 85% in 15 min, held 3 min, 100 µL/min
- condition.notes: column: Zorbax Extend-C18 2.1 x 50 mm; eluents: water / acetonitrile, 0.1% formic acid
// NB: equality with 800 s counts as f; only RP-LC retention time strictly below is t

Solved entries:
compound | answer.label
COc1ccc(-c2nc3cnccn3c2NCCC(=O)N2CCN(C(C)C)CC2)cc1 | t
Cc1ccc2nc(-c3c(F)cccc3Cl)c(Nc3ccc4c(c3)OCO4)n2c1 | t
Cc1cnc(-c2ccncc2)n1CC1CCN(S(=O)(=O)c2ccc3c(c2)OCCO3)C1 (centres undefined) | t
Cc1ccc(-n2cc(C(=O)Oc3cccnc3)c3ccccc3c2=O)cc1 | f
CCOc1ccccc1NC(=O)C1CCCN(S(=O)(=O)c2cc(-c3noc(C)n3)cs2)C1 (centres undefined) | f

Challenge: Field: below-cutoff. Rule: recorded RP-LC retention time strictly less than 800 s. Subject: O=C(CCn1nnc2cc(S(=O)(=O)N3CCCC3)ccc21)N1CCN(c2ccccn2)CC1
Response given: t

Challenge: Lab log: compare recorded RP-LC retention time with 800 s; is it strictly lower for CCc1nc(-c2cc(S(=O)(=O)N3CCC(C(=O)N4CCCCCC4)CC3)c(C)s2)no1 ?
Response given: f

Challenge: Just wondering, is RP-LC retention time of CCCOC(=O)C1=C(C)NC2=C(C(=O)C(C(=O)OC)C(C)C2)C1c1ccccc1OC (centres undefined) below 800 s?
Response given: f

Challenge: Identify whether the compound CC(C)CNC(=O)N1C[C@@H]2CCCN3CCC[C@@H]([C@H]23)[C@H]1CCCC(=O)NCC1CC1 records RP-LC retention time below 800 s.
Response given: t
